study-target: 5-HT2A receptor (Homo sapiens (Human))
measurement-description: 5-HT2A radioligand competition binding ([3H]LSD or [3H]ketanserin)
assay-conditions: read-out: 5-HT2A, Ki; radioligand [3H]LSD
assay-metric: log10 of Ki (log10 of the value in µM)
Values are log10 of Ki in µM.

Below, 8 molecules whose answers are already recorded.
>>> df
                                test_smiles                            study_target  experimental_value
0                COc1cc(C2CCCC2)c(OC)cc1CCN  5-HT2A receptor (Homo sapiens (Human))               -0.82
1        COc1cc(SC(F)(F)F)c(OC)cc1CCNCC1CC1  5-HT2A receptor (Homo sapiens (Human))               -2.00
2  [2H]C([2H])([2H])Oc1cc(C(C)(C)C)c(OC([2H])([2H])[2H])cc1CCN  5-HT2A receptor (Homo sapiens (Human))               -1.96
3                  C#CCSc1cc(OC)c(CCN)cc1OC  5-HT2A receptor (Homo sapiens (Human))               -2.89
4               COc1cc(C(C)(C)C)c(OC)cc1CCN  5-HT2A receptor (Homo sapiens (Human))               -2.00
5                 COc1cc(SC(F)F)c(OC)cc1CCN  5-HT2A receptor (Homo sapiens (Human))               -2.20
6            COc1cc(SCCC(F)(F)F)c(OC)cc1CCN  5-HT2A receptor (Homo sapiens (Human))               -2.07
7                  COc1cc(SCCCF)c(OC)cc1CCN  5-HT2A receptor (Homo sapiens (Human))               -1.92

Look at each molecule and report its log10 of Ki.
1. COc1cc(OCCCF)c(OC)cc1CCN
2. [2H]C([2H])([2H])Oc1cc(C2CCCC2)c(OC([2H])([2H])[2H])cc1CCN

[0.41, -0.69]

----------
Answer each item with its documented pKi.
study-target: 5-HT2A receptor (Homo sapiens (Human), UniProt P28223)
measurement-description: 5-HT2A radioligand competition binding ([3H]LSD or [3H]ketanserin)
assay-conditions: read-out: 5-HT2A, Ki; radioligand [3H]ketanserin
Answers are plain numbers, as −log10 of the molar value.

Below, 3 compounds whose answers are already recorded.
>>> print(df.to_string())
                                   compound  assay_metric  experimental_value
0   [2H]C([2H])(N)Cc1cc(OC)c(C(F)(F)F)cc1OC           pKi                7.38
1         [2H]C([2H])(N)Cc1cc(OC)c(SC)cc1OC           pKi                6.45
2  [2H]C([2H])([2H])Oc1cc(SC)c(OC([2H])([2H])[2H])cc1CCN           pKi                6.76

Look at each compound and report its pKi.
1. [2H]C([2H])([2H])Oc1cc(C(F)(F)F)c(OC([2H])([2H])[2H])cc1CCN
2. COc1cc(C(F)(F)F)c(OC)cc1CCN [Reference Compound 4, reference compound]

[7.26, 7.60]

# query: pKi of entry COc1cc(SC)c(OC)cc1CCN [Reference Compound 3, reference compound] 6.53

----------
measurement-description: PK profile in C57BL/6J mice (plasma, brain)
Assay type: in vivo, mouse
assay-conditions: male, C57BL/6J, mouse, po; plasma; p.o. 3 mg/kg
assay-metric: Cmax (ng/mL)
Numbers only, in ng/mL.

# query: Cmax of entry COc1cc(SC(F)(F)F)c(OC)cc1CCN [Compound I-1] 175

----------
measurement-description: PK profile in Wistar rats (plasma, brain, urine)
Format: in vivo, rat
assay-conditions: male, Wistar, rat, po; brain; p.o. 5 mg/kg
assay-metric: AUC(0-t) (ng·h/mL)
Give bare numbers, in ng·h/mL.

# query: AUC(0-t) of entry COc1cc(SC(F)(F)F)c(OC)cc1CCN [Compound I-1] 1860

----------
measurement-description: PK in Sprague-Dawley rats (plasma, brain, CSF)
Assay type: in vivo, rat
assay-conditions: male, Sprague-Dawley, rat; plasma; IV 1 mg/kg
assay-metric: MRT inf
Express your answer as a number followed by its unit.

# query: MRT inf of entry COc1cc(SC(F)(F)F)c(OC)cc1CCN 1.19 h

----------
study-target: 5-HT2C receptor (Homo sapiens (Human), UniProt P28335)
Sequence (P28335 whole entry, looked up): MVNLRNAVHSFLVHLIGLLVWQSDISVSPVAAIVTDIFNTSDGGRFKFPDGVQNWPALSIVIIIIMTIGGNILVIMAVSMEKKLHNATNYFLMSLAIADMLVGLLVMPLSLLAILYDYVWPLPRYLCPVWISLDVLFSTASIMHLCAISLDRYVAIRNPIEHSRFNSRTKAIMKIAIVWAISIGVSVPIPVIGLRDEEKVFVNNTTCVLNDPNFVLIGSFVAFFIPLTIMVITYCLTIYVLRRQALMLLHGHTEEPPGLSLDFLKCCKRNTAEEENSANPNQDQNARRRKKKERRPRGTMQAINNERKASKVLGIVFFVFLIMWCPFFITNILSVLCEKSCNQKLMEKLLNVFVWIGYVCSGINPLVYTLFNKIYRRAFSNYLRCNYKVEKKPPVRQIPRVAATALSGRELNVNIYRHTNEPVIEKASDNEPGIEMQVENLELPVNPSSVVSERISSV
measurement-description: 5-HT2C radioligand competition binding ([3H]mesulergine or [3H]LSD)
assay-metric: Ki (nM)
Answers are plain numbers, in nM.

# query: Ki of entry COc1cc(SC(F)(F)F)c(OC)cc1CCNCC1CC1 [Compound V-1] 74.9

----------
study-target: 5-HT2A receptor (Homo sapiens (Human))
measurement-description: 5-HT2A radioligand binding ([125I](±)DOI)
assay-conditions: radioligand [125I](±)DOI
assay-metric: pKi
Give bare numbers, as −log10 of the molar value.

So what pKi did COc1cc(SC(F)(F)F)c(OC)cc1CCN [Compound I-1] get with 5-HT2A receptor (Homo sapiens (Human))? 9.46

----------
study-target: UniProt P18825
Sequence (P18825 whole entry): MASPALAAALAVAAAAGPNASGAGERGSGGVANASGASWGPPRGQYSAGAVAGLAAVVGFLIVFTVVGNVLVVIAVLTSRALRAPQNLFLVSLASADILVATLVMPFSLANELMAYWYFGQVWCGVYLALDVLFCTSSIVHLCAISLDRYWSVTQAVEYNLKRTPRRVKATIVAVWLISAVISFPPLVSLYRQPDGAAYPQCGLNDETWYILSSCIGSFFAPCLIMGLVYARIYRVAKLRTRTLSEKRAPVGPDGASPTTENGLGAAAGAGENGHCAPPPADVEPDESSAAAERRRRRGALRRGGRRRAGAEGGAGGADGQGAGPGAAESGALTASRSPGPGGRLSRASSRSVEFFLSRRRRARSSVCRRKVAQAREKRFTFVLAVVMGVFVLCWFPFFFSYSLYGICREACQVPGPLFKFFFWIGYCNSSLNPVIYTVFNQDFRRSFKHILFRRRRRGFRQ
assay-metric: Ki (µM)
Give bare numbers, in µM.

# query: Ki of entry COc1cc(SC(F)(F)F)c(OC)cc1CCN 0.108

----------
measurement-description: PK in Sprague-Dawley rats (plasma, brain, CSF)
Type: in vivo, rat
assay-conditions: male, Sprague-Dawley, rat; CSF; IV 1 mg/kg
assay-metric: AUC(0-t) (ng·h/mL)
Answers are plain numbers, in ng·h/mL.

# query: AUC(0-t) of entry COc1cc(SC(F)(F)F)c(OC)cc1CCN 49.9

----------
measurement-description: PK profile in C57BL/6J mice (plasma, brain)
Assay type: in vivo, mouse
assay-conditions: male, C57BL/6J, mouse, po; plasma; p.o. 3 mg/kg; read-out: AUCINF—obs
assay-metric: AUC(0-inf) (ng·h/mL)
Answers are plain numbers, in ng·h/mL.

# query: AUC(0-inf) of entry COc1cc(SC(F)(F)F)c(OC)cc1CCN 784

----------
study-target: human alpha2A receptor (Homo sapiens (Human), UniProt P08913)
Sequence (P08913 whole entry): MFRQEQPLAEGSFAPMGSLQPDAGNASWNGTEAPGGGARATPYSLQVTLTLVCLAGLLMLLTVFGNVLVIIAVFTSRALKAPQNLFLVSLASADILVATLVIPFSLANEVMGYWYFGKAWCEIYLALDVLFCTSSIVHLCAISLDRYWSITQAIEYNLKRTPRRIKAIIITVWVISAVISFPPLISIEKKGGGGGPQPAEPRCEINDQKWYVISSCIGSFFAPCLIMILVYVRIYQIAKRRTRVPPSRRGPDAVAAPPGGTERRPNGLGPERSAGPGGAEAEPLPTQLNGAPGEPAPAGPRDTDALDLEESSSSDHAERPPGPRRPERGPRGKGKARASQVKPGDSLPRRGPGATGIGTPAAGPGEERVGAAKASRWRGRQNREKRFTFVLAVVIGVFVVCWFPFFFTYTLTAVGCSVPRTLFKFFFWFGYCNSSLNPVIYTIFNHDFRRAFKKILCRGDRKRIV
assay-metric: pKi
Answers are plain numbers, as −log10 of the molar value.

So what pKi did COc1cc(SC(F)(F)F)c(OC)cc1CCN get with human alpha2A receptor (Homo sapiens (Human), UniProt P08913)? 7.18

----------
measurement-description: PK profile in C57BL/6J mice (plasma, brain)
Assay type: in vivo, mouse
assay-conditions: male, C57BL/6J, mouse, sc; brain; s.c. 3 mg/kg
assay-metric: AUC(0-t)
Express your answer as a number followed by its unit.

# query: AUC(0-t) of entry COc1cc(SC(F)(F)F)c(OC)cc1CCN 22500 ng·h/mL

----------
measurement-description: PK profile in Wistar rats (plasma, brain, urine)
Format: in vivo, rat
assay-conditions: male, Wistar, rat, po; plasma; p.o. 5 mg/kg
assay-metric: Cmax (ng/mL)
One number for each entry, in ng/mL.

# query: Cmax of entry COc1cc(SC(F)(F)F)c(OC)cc1CCN 18.6

----------
measurement-description: PK profile in Wistar rats (plasma, brain, urine)
Assay type: in vivo, rat
assay-conditions: male, Wistar, rat; plasma; IV 1 mg/kg
assay-metric: Cmax (ng/mL)
Give bare numbers, in ng/mL.

# query: Cmax of entry COc1cc(SC(F)(F)F)c(OC)cc1CCN 54.1

----------
measurement-description: PK profile in C57BL/6J mice (plasma, brain)
Format: in vivo, mouse
assay-conditions: male, C57BL/6J, mouse, sc; plasma; s.c. 3 mg/kg
Description: PK Profile in Mice. To evaluate the full PK profile for I-1 in mice, plasma and brain samples were determined in male C57BL/6J mice following subcutaneous (s.c.) and oral (p.o.) administration at 3 mg/kg (see Table 7 and FIGS. 54A and 54B). […] Plasma and brain concentrations were determined using LC-MS/MS and PK parameters were determined using a non-compartmental analysis (NCA) using Phoenix WinNonlin Pro (v8.3.1, Pharsight, Inc, USA) software.
assay-metric: AUC(0-t) (µg·h/mL)
Give bare numbers, in µg·h/mL.

# query: AUC(0-t) of entry COc1cc(SC(F)(F)F)c(OC)cc1CCN 0.731

----------
Answer each item with its documented pKi.
study-target: UniProtKB P28335
measurement-description: 5-HT2C radioligand competition binding ([3H]mesulergine or [3H]LSD)
assay-conditions: read-out: 5-HT2C, Ki; radioligand [3H]mesulergine
Numbers only, as −log10 of the molar value.

                                   molecule  experimental_value
0  [2H]C([2H])(N)Cc1cc(OC)c(C(F)(F)F)cc1OC [IV-3]                7.64

Here is another molecule to look at.
# query: pKi of entry COc1cc(C(F)(F)F)c(OC)cc1CCN [Reference Compound 4, reference compound] 7.46

All values here come from patent US20250236589A1.
